src = patent EP0144519A1

test: plasma levels of diflunisal after oral administration in the rat (pharmacokinetics); type: in vivo; details: 40 umol/kg, oral dose 0.04 mmol/kg, read-out: tC max
Recorded Endpoint: Tmax (h)

compound="O=C(O)c1cc(-c2ccc(F)cc2F)ccc1O [Diflunisal]" recorded_endpoint=Tmax observed=3

###

assay: plasma levels of diflunisal after oral administration in the rat (pharmacokinetics); format: in vivo; conditions: 40 umol/kg, oral dose 0.04 mmol/kg, read-out: t½ (converted)
Recorded Endpoint: half-life (h)

structure_smiles_string=O=C(O)c1cc(-c2ccc(F)cc2F)ccc1O observed=4.2

###

experiment: plasma levels of diflunisal after oral administration in the rat (pharmacokinetics); assay type: in vivo; conditions: 40 umol/kg, oral dose 0.04 mmol/kg, read-out: o → oo
Recorded Endpoint: AUC(0-inf)

structure_smiles_string=O=C(O)c1cc(-c2ccc(F)cc2F)ccc1O recorded_endpoint=AUC(0-inf) observed="345 µg·h/mL"
